Molecular target: CAAX prenyl protease 2 (Homo sapiens, UniProt Q9Y256)
Sequence (Q9Y256 whole entry): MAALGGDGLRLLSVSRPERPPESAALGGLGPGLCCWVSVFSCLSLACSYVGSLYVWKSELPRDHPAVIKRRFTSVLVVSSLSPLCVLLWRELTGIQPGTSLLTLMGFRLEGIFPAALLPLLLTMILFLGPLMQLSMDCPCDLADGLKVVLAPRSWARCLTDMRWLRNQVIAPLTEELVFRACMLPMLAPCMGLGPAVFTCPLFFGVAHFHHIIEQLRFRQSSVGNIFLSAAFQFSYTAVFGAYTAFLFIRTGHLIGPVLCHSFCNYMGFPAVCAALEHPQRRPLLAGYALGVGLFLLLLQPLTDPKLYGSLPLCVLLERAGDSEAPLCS
Assay: human Rce1 protease inhibitors, dose response, biochemical, yeast membranes, quenched-peptide fluorescence, cherry-pick (AID 588849)
Active and inactive are the calls of the source. Rule as the data show it: actives have a measured AC50 and inactives only a lower limit.
Here the recorded AC50 is given for each entry.

# example entries with known answers
compound: O=C(Nc1ccc(S(=O)(=O)Nc2ccccc2)cc1)C1COc2ccccc2O1 (centres undefined)
AC50: 65.5 µM (active)
//
compound: COc1cc(Cn2c(N)c(C(=O)NCc3ccco3)c3nc4ccccc4nc32)cc(OC)c1OC
AC50: 3.86 µM (active)
//
compound: O=[N+]([O-])c1ccc(C[n+]2c(-c3ccccc3)cc(-c3ccccc3)cc2-c2ccccc2)cc1.[O-][Cl+3]([O-])([O-])[O-]
AC50: 68.4 µM (active)

Here is the next item to consider.
Quick one: AC50 for O=C(O)c1ccccc1NCCO ?
5.81 µM (active)
